B1: RIPK4 (parent)
chain: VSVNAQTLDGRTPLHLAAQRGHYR

variants of: B1; assay: protein stability index of a GFP-peptide fusion (GPS, HEK-293T) (PSI 1-6); higher = more stable; conditions: c terminus: a fixed tail appended;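 also: lentivirally expressed fusions sorted by FACS into six bins by GFP to DsRed ratio, PSI derived from sequencing read proportions per bin multiplied by bin number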
Entries and their protein stability index values follow.

- Mutation Notation: "R24S"
  protein stability index: 3.01
- Mutation Notation: "R20A"
  protein stability index: 3.02
- Mutation Notation: "R11V"
  protein stability index: 2.97
- Mutation Notation: "Y23F"
  protein stability index: 2.98
- Mutation Notation: "D9Q"
  protein stability index: 2.92
- Mutation Notation: "S2C"
  protein stability index: 2.93
- Mutation Notation: "H22C"
  protein stability index: 2.98
- Mutation Notation: "S2T"
  protein stability index: 2.91
- Mutation Notation: "L8Y"
  protein stability index: 3.07
- Mutation Notation: "Q19C"
  protein stability index: 2.97
- Mutation Notation: "H15C"
  protein stability index: 3.01
